Reported Response values for the following binders.
Molecular target: T1, CD123 (protein in solution in the Octet affinity assay) (human, UniProt P26951 19-305, limits assumed)
T1 construct: also called IL-3Rα; Interleukine-3 Receptor alpha
T1 sequence (looked up): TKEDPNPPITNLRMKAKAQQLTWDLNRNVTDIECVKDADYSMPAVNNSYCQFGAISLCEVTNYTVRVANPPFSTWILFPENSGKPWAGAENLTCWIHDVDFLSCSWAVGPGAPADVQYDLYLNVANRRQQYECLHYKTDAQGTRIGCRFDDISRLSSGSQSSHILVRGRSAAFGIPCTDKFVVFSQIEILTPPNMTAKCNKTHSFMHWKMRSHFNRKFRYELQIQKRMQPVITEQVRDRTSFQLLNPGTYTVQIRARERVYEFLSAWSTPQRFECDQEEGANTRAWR
Assay: BLI (Octet), antibody on streptavidin biosensor, CD123 6.25 nM

- binder: "11B6E6 (antibody, V domains shown, Mouse hybridoma monoclonal antibody; also called AB3) VH: QVKLEESGPGLVAPSQSLSITCTVSGFSLTSYDISWIRQPPGKGLEWLGVIWTGGGTNYNSAFMSRLSISKDNSKSQVFLKMFSLQTDDTAIYYCVRAHGYYFAMDYWGQGTSVTVSS VL: DIVLTQSPSSLAVSAGEKVTMRCKSSQSLLNSSTRKNYLAWYQQKPGQSPKLLIYWASTRESGVPDRFTGSGSGTDFTLTISSVQAEDLAVYYCKQSYNLFTFGSGTKLEIKR"
  Response: 0.0349
- binder: "15E11B7 (antibody, V domains shown, Mouse hybridoma monoclonal antibody; also called AB6) VH: EVQLEQSGPELVKPGDSVKISCKASGYSFTGYFMNWVKQSHGKSLEWIGRINPYNDYTFNNQKFKDKATLTVDKSSSTAHMELLSLTSEDSAVYYCGGGVRGAWFAFWGQGTLVTVSE VL: DIVLTQSTTSLAVSLGQRATISCRASKSVSTSGYNYMHWYQQKPGQPPKLLIYLASNLESGVPARFSGSGSGTDFTLNIHPVEEEDAATYYCQHSADLPYTFGGGTKLEIKR"
  Response: 0.0878
